Would you mind telling me the reported Neut IC50 subtype B of each entry?
# Measured on: RSV F on RSV subtype B virus (mKate-RSV B 18537) (respiratory syncytial virus B 18537, UniProt P13843 26-574)
# Sequence (P13843 26-574): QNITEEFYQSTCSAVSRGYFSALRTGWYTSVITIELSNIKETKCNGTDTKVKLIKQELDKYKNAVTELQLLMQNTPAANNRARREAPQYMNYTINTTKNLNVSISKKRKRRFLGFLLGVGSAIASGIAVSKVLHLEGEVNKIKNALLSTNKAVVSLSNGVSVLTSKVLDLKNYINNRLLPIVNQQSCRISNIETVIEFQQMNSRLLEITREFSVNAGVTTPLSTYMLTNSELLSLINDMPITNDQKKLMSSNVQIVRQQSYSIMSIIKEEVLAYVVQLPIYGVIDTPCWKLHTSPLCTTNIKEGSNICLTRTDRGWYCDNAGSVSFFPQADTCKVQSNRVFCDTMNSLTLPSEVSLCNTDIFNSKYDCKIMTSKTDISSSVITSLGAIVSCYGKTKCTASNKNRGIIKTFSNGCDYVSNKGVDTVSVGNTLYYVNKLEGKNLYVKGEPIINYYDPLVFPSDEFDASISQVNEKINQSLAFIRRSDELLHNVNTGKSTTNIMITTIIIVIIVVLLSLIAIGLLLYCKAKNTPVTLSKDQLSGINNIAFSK
# Measurement protocol: cell-based or functional assay
Give bare numbers, in µg/mL.

ADI-14347 (antibody, V domains shown, full-length IgG; also called Ab 15) VH: EVQLVESGGGLVKPGGSLRLSCAASGFTFRDYYMNWIRQAPGKGLEWVSDISASSSYTNYADSVKGRFTISRDNAKTSLYLQMNSLRAEDTAVYYCAREVVTAMGGYYFDYWGQGTLVTVSS VL: QSVVTQPPSVSGAPGQRVTISCTGSSSNIGAGYDVHWYQQLPGTAPKLLIYGNNNRPSGVPDRFSGSKSGTSASLAITGLQAEDEADYYCQSYDSSLSGSGVFGTGTKVTVL | 0.05

// below: Neut IC50 subtype B requested for another binder
Asked: Give recorded Neut IC50 subtype B. ADI-24835 (antibody, V domains shown, full-length IgG) VH: EVQLVESGGGLVKPGGSLRLSCAASGFPFSTSSMNWVRQAPGKGLEWVSSISSSSSYIDYADSVKGRFTISRDNAKNSLYLQMNSLRAGDTAVYYCARVPRSDWYYFDYWGQGTLVTVSS VL: QSVVTQPPSVSGAPGQRVTISCTGSSSNIGAGYDVHWYQQLPGTAPKFLIYDNKYRPSGVPDRFSGSKSGTSASLAITGLQAEDEADYYCQSYDSSLSGYVFGTGTKLTVL
Given back: 1.06
